self-cleavage values, listed per item
B1: LINE1-full (parent)
chain: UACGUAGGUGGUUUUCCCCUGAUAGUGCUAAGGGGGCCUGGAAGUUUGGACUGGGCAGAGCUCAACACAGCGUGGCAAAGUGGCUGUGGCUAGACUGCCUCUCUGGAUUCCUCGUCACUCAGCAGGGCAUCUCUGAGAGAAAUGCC

Variants of: B1
protocol-description: self-cleavage, relative activity (ratio to wild type); higher = more cleavage; in vitro, sequencing; the parent is a self-cleaving ribozyme
Note: the reply should be a number with no unit written.

In the examples that follow, each entry is paired with its recorded self-cleavage.
residue-codes	quantity-measured	observed
UACGUAGGUGGUUUUCCCCUGAUAGUGCUAAGGGGGCCUGGAAGUUUGGACUGGGCAGAGCUCAACACAGCGUGGCAAAGUGGCUGUGGCUAGACUGCCUCUCUGGAUUCCUUGUCACUCUGCAGGGCAUCUCUGAGAGAAAUGCC	self-cleavage	1.53
UACGUAGGUGGUUUUCCCCUGAUAGUGCUAAGGGGGCCUGGAAGUCUGGACUGGGCAGAGCUCAACACAGCGUGGCAAAGUGGCUGUGGCUAGACUGCCUCUCUGGAUUCCUCGUCACUCAGCGGGGCAUCUCUGAGAGAAAUGCC	self-cleavage	1.54
UACGUAGGUGGUUUUCCCCUGAUAGUGCUAAGGGGGCCUGGAAGUUUGGACUGGGCAUAGCUCAACACAGCGUGGCAAAGUGGCUGUGGCUAGACUGCCUCUCUGGAUUCCUCGUCACUCAGCAGGGCGUCUCUGAGAGAAAUGCC	self-cleavage	0.05
UACGCAGGUGGUUUUCCCCUGAUAGUGCUAAGGGGACCUGGAAGUUUGGACUGGGCAGAGCUCAACACAGCGUGGCAAAGUGGCUGUGGCUAGACUGCCUCUCUGGAUUCCUCGUCACUCAGCAGGGCAUCUCUGAGAGAAAUGCC	self-cleavage	0.4

[Q] What does the record list as self-cleavage for UACGUAGGUGGUUUUCCCCUGAUAGUGCUAAGGGGGCCUGGAAGUUUGGACUGGGCAGAGCCCAACACAGCGUGGCAAAGUGGCUGUGGCUAGACUGCCCCUCUGGAUUCCUCGUCACUCAGCAGGGCAUCUCUGAGAGAAAUGCC ?
[A] 0.09

[Q] What does the record list as self-cleavage for UACGUAGGUGGUUUUCCCCUGAUAGUGCUAAGGGGGCCUGGAAGUUUGGACUGGGCAAAGCUCAACACAGCGUGGCAAAGUGGCUGUGGCUAGACUGCCUCUCUGGAUUCCUCGUCCCUCAGCAGGGCAUCUCUGAGAGAAAUGCC ?
[A] 0.1

[Q] What does the record list as self-cleavage for UACGUAGGUGGUUUUCCCCUGAUAGUGCUAAGGGGGCCUGGAAGUUUGGACUGGGCAGAGCUCAACACAGCGUGGCAAAGAGGCUGUGGCUAGACUGCCUCUCUGGAUUCCUCGUCACUCUGCAGGGCAUCUCUGAGAGAAAUGCC ?
[A] 1.7

[Q] What does the record list as self-cleavage for UCCUUAGGUGGUUUUCCCCUGAUAGUGCUAAGGGGGCCUGGAAGUUUGGACUGGGCAGAGCUCAACACAGCGUGGCAAAGUGGCUGUGGCUAGACUGCCUCUCUGGAUUCCUCGUCACUCAGCAGGGCAUCUCUGAGAGAAAUGCC ?
[A] 1.34

[Q] What does the record list as self-cleavage for UACGUAGGUGGUUAUCCCCUGAUAGUGCUAAGGGGGCCUGGAAGUUUGGACUGGGCAGAGCUCAACGCAGCGUGGCAAAGUGGCUGUGGCUAGACUGCCUCUCUGGAUUCCUCGUCACUCAGCAGGGCAUCUCUGAGAGAAAUGCC ?
[A] 0.59

[Q] What does the record list as self-cleavage for UACGUAGGUGGUUUUCCCCUGAUAGUGCUAUGGGGGCCUGGAAGUUUGGACUGGGCAGAGCUCAACACAGCGUGGCAAAGUGGCUGUGGCUAGACUGCCUCUCUGGAUUCCUCGUCACUCAGCAGGGCAUCUCUGAGAGAAAUACC ?
[A] 0.96

[Q] What does the record list as self-cleavage for UACGUAGGUGGUUUUCCCCUGAUAGUGCUAAGGGGGCCUGGAAGUUUGGACUGGGCAGAGCUCAACACAGCGUGGCAAAGUGGCUGUGGCUAGACUGCCUCUCUGGAUUCCUCGUCACUCAACAGGGCAUCUCUGAUAGAAAUGCC ?
[A] 1.23

[Q] What does the record list as self-cleavage for UACGUAGGUGGUUUUCCCCUGAUAGUGCUAAGGGGGCCUGGAAGUUUGGACUGGGCAGAGCUCAACACAGCGUGGCCAAGUGGCUGUGGCUAGACUGCCUCUCUGGACUCCUCGUCACUCAGCAGGGCAUCUCUGAGAGAAAUGCC ?
[A] 1.6

[Q] What does the record list as self-cleavage for UACGUAGGUGGUUUCCCCCUGAUAGUGCUAAGGGGGCCUGGAAGUUUGGAUUGGGCAGAGCUCAACACAGCGUGGCAAAGUGGCUGUGGCUAGACUGCCUCUCUGGAUUCCUCGUCACUCAGCAGGGCAUCUCUGAGAGAAAUGCC ?
[A] 1.26

[Q] What does the record list as self-cleavage for UACGUAGGUGGUUUUCUCCUGAUAGUGCUAAGGGGGCCUGGAAGUAUGGACUGGGCAGAGCUCAACACAGCGUGGCAAAGUGGCUGUGGCUAGACUGCCUCUCUGGAUUCCUCGUCACUCAGCAGGGCAUCUCUGAGAGAAAUGCC ?
[A] 0.72

[Q] What does the record list as self-cleavage for UACGUAGGUGGUUUUCCCCUGAUAGUGCUAAGGGGGCCUGGAAGUUUGGACUGGGCAGAGCUCAACACAGCGUGGCAAAGUGGCUGUGGCUAGACAGCCUCUAUGGAUUCCUCGUCACUCAGCAGGGCAUCUCUGAGAGAAAUGCC ?
[A] 0.06

[Q] What does the record list as self-cleavage for UACGUAGGUGGUUUUCCCCUGAUAAUGCUAAGGGGGCCUGGAAGUUUGGACUGCGCAGAGCUCAACACAGCGUGGCAAAGUGGCUGUGGCUAGACUGCCUCUCUGGAUUCCUCGUCACUCAGCAGGGCAUCUCUGAGAGAAAUGCC ?
[A] 1.02

[Q] What does the record list as self-cleavage for UACGUAGGUGGCUUUCCCCUGAUAGUGCUAAGGGGGCCUGGAAGUUUGGACUGGGCAGAGCUCAACACAGCGUGGCAAAGUGGCUGUGGCUAGACUGCCUCUCUGGAUACCUCGUCACUCAGCAGGGCAUCUCUGAGAGAAAUGCC ?
[A] 1.49

[Q] What does the record list as self-cleavage for UACGUAGGUGGUCUUCCCUUGAUAGUGCUAAGGGGGCCUGGAAGUUUGGACUGGGCAGAGCUCAACACAGCGUGGCAAAGUGGCUGUGGCUAGACUGCCUCUCUGGAUUCCUCGUCACUCAGCAGGGCAUCUCUGAGAGAAAUGCC ?
[A] 1.01

[Q] What does the record list as self-cleavage for UACGUAGGUGGUUUUCCCCUGAUAGUGCUAAGGGGGUCUGGAAGUUUGGACUGGGCAGAGCUCAACACAGCGUGGCAAAGUGGCUGUGGCUAGACUGCCUCUCUGGAUUCCUCGUCACUCAGCAGGGCAUCUCUGUGAGAAAUGCC ?
[A] 1.49

[Q] What does the record list as self-cleavage for UACGUAGGUGGUUUACCCCUGAUAGUGCUAAGGGGGCCUGGAAGUUUGGACUGGGCAGAGCUCAACACAGCGUGGCAAAGUGGCUGUGGCUAGACUGCCUCUCUGGAUUCCUCGUCAUUCAGCAGGGCAUCUCUGAGAGAAAUGCC ?
[A] 0.49

[Q] What does the record list as self-cleavage for UACGUAGGUGGUUUUCCCCUGAUAGUGCCAAGGGGGCCUGGAAGUUUGGACUGGGCAGAGCUCAACACAGCGUGGCAAAGUGGCUGUGGCUAGACUGCCUCUCUGGAUUCCUCGUCACUCAGCAGGGCAACUCUGAGAGAAAUGCC ?
[A] 1.26

[Q] What does the record list as self-cleavage for UACGUAGGUGGUUUUCCCCUGAUAGUGCUAAAGGGGCCUGGAAGUUUGGACUGGGCAGAGCUCAACACAGCGUGGCAAAGUGGCUGUGGCUAGACUUCCUCUCUGGAUUCCUCGUCACUCAGCAGGGCAUCUCUGAGAGAAAUGCC ?
[A] 0.1

[Q] What does the record list as self-cleavage for UACGUAGGUGGUUUUCCCCUGAUAGUGCUAAGGGGGCCUGGGAGUUUGGACUGGGCAGAGCUCAACACAGCGUGGCAAAGUGGCUGUGGCUAGACUGCCUCUCUGGAUUCCUCGUCACUCAGCAGGGCAUCUCUGAGCGAAAUGCC ?
[A] 0.41

Cited source for all entries: the RNAGym collection of RNA variant scans (doi:10.7554/elife.90254)
